The measurements presented in this section are drawn from patent US20230092890A1.

molecular target: HDAC6 human recombinant (Homo sapiens); construct: purchased Calbiochem 382180; assay: HDAC enzyme activity inhibition (in vitro), HDAC6 assay; type: biochemical; details: samples at 0.1, 1, 10, 100 and 1000 nM; 37° C. 60 minutes; fluorescence Ex 390, Em 460; read-out: HDAC6 IC50
pIC50: −log10 of the molar value.
observation_type: pIC50

> print(dat)
                                    molecule  observation.type  value.reported
 1  O=c1sc2cc(-c3ccc(CN4CCOCC4)nc3)ccc2n1Cc1ccc(-c2nnc(C(F)F)o2)cn1 [Compound 333]             pIC50            7.42
 2  CCN1CCC[C@H](n2c(=O)n(Cc3ccc(-c4nnc(C(F)F)o4)cn3)c3cc(F)c(-c4ccncc4)cc32)C1 [Compound 300]             pIC50            7.89
 3  CN1CCC(n2c(=O)n(Cc3ccc(-c4nnc(C(F)F)o4)cc3)c3ncccc32)CC1 [Compound 105]             pIC50            6.19
 4  CN1CCC(n2c(=O)n(Cc3ccc(-c4nnc(C(F)F)o4)cn3)c3cc(F)c(-c4cn[nH]c4)cc32)CC1 [Compound 248]             pIC50            8.22
 5  O=c1n(Cc2ccc(-c3nnc(C(F)F)o3)cc2F)c2ncccc2n1C1CCN(C2COC2)CC1 [Compound 104]             pIC50            6.55
 6  O=c1oc2cc(C3CCN(C4CCC4)CC3)ccc2n1Cc1ccc(-c2nnc(C(F)F)o2)cn1 [Compound 315]             pIC50            6.93
 7  O=c1oc2cc(-c3cncc(N4CCOCC4)c3)c(F)cc2n1Cc1ccc(-c2nnc(C(F)F)o2)cn1 [Compound 348]             pIC50            7.60
 8  O=c1sc2cc(Br)ccc2n1Cc1ccc(-c2nnc(C(F)F)o2)cn1 [Compound 230]             pIC50            7.80
 9  O=c1n(Cc2ccc(-c3nnc(C(F)F)o3)cn2)c2ccccc2n1C1CCOCC1 [Compound 12]             pIC50            6.80
10  CC(C)(C)OC(=O)N1CC=C(c2ccc3c(c2)sc(=O)n3Cc2ccc(-c3nnc(C(F)F)o3)cn2)CC1 [Compound 238]             pIC50            6.69
11  CN1CCC(n2cc(-c3ccc4c(c3)sc(=O)n4Cc3ccc(-c4nnc(C(F)F)o4)cn3)cn2)CC1 [Compound 353]             pIC50            7.72
12  O=c1oc2cc(-c3ccncc3)c(F)cc2n1Cc1ccc(-c2nnc(C(F)F)o2)cn1 [Compound 278]             pIC50            7.77
13  O=c1n(Cc2ccc(-c3nnc(C(F)F)o3)cn2)c2cc(F)c(-c3cccc4[nH]ccc34)cc2n1[C@@H]1CCCN(C2COC2)C1 [Compound 295]             pIC50            8.00
14  CN1CCC(n2c(=O)n(Cc3ccc(-c4nnc(C(F)F)o4)cn3)c3ccc(-c4cccc(F)c4)cc32)CC1 [Compound 133]             pIC50            7.70
15  O=c1n(Cc2ccc(-c3nnc(C(F)F)o3)cn2)c2cc(F)c(-c3cccnc3)cc2n1C1CN(C2COC2)C1 [Compound 311]             pIC50            7.92
16  O=C(CO)N1CCC(n2c(=O)n(Cc3ccc(-c4nnc(C(F)F)o4)cn3)c3cc(Cl)ccc32)CC1 [Compound 243]             pIC50            7.77
17  CC(C)(C)OC(=O)N1CCN(c2ncc(-c3cc4oc(=O)n(Cc5ccc(-c6nnc(C(F)F)o6)cn5)c4cc3F)cn2)CC1 [Compound 337]             pIC50            6.17
18  O=c1n(CCN2CC3(COC3)C2)c2ccccc2n1Cc1ccc(-c2nnc(C(F)F)o2)cn1 [Compound 25]             pIC50            7.08
19  COC(=O)N1CCC(n2c(=O)n(Cc3ccc(-c4nnc(C(F)F)o4)cn3)c3cc(F)ccc32)CC1 [Compound 68]             pIC50            7.47
20  COCC(C)N1CCC(n2c(=O)n(Cc3ccc(-c4nnc(C(F)F)o4)cn3)c3cc(F)ccc32)CC1 (centres unmarked) [Compound 56]             pIC50            7.47
21  CN(C)CCn1c(=O)n(Cc2ccc(-c3nnc(C(F)F)o3)cn2)c2cc(F)c(-c3ccncc3)cc21 [Compound 327]             pIC50            7.24
22  CC(C)N1CCC(c2cc3oc(=O)n(Cc4ccc(-c5nnc(C(F)F)o5)cn4)c3cc2F)CC1 [Compound 335]             pIC50            7.12
23  O=c1n(Cc2ccc(-c3nnc(C(F)F)o3)cn2)c2cc(F)c(-c3cccc4[nH]ccc34)cc2n1C1CN(C2COC2)C1 [Compound 310]             pIC50            8.22
24  Cn1c(=O)n(Cc2ccc(-c3nnc(C(F)F)o3)cc2F)c2cc(F)c(Br)cc21 [Compound 148]             pIC50            7.21
25  CCC(F)(F)CN1CCC(n2c(=O)n(Cc3ccc(-c4nnc(C(F)F)o4)cn3)c3cc(Cl)ccc32)CC1 [Compound 233]             pIC50            6.97
26  CN1CCC(n2c(=O)n(Cc3ccc(-c4nnc(C(F)F)o4)cn3)c3cc(F)c(-c4cccc5[nH]ccc45)cc32)CC1 [Compound 217]             pIC50            8.22
27  CC(C)N1CCN(c2cc3c(cc2F)n(Cc2ccc(-c4nnc(C(F)F)o4)cn2)c(=O)n3C)CC1 [Compound 261]             pIC50            7.24
28  O=c1n(Cc2ccc(-c3nnc(C(F)F)o3)cn2)c2c(F)cccc2n1C1CCN(C2COC2)CC1 [Compound 77]             pIC50            7.46
29  CN1CCC(n2c(=O)n(Cc3ccc(-c4nnc(C(F)F)o4)cc3)c3cc(-c4cc(F)ccc4F)ccc32)CC1 [Compound 128]             pIC50            6.10

----------
The compounds listed here are annotated with their pIC50.
Molecular target: HDAC6 human recombinant (Homo sapiens)
Construct: purchased Calbiochem 382180
Sequence (Q9UBN7 1-1215): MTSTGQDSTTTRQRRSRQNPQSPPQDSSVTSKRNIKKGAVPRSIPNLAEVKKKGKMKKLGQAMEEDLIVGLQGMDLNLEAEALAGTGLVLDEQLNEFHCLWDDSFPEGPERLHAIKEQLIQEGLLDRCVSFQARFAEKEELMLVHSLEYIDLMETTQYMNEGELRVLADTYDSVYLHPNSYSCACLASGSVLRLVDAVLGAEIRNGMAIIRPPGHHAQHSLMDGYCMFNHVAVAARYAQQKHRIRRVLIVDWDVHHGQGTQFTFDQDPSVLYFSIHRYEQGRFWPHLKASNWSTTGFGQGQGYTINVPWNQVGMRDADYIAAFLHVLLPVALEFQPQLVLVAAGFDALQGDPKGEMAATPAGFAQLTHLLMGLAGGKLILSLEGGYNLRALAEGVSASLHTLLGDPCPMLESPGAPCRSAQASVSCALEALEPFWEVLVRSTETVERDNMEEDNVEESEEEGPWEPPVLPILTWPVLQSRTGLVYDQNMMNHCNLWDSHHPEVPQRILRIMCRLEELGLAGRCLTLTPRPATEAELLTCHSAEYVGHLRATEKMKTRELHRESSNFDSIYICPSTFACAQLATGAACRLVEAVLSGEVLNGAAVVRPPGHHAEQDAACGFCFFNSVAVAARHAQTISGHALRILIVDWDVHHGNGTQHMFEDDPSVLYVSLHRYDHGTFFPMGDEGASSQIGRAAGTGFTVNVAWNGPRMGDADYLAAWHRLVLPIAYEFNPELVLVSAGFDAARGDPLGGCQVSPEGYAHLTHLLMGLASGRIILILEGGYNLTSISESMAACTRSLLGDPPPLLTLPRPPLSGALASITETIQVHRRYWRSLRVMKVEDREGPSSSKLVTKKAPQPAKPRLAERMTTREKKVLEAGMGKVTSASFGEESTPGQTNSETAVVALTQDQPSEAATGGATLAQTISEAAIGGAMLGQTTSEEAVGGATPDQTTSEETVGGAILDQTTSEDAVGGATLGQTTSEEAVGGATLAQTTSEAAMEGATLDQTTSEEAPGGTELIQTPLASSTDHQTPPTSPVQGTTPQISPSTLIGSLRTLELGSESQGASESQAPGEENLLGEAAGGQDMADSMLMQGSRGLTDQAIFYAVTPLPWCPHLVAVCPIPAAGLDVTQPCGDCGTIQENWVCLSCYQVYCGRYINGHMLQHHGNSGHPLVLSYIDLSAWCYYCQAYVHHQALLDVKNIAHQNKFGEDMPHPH
Experiment: HDAC enzyme activity inhibition (in vitro), HDAC6 assay
Type: biochemical
Conditions: samples at 0.1, 1, 10, 100 and 1000 nM; 37° C. 60 minutes; fluorescence Ex 390, Em 460; read-out: HDAC6 IC50
pIC50: −log10 of the molar value.
observation_type: pIC50

> print(dat)
                          compound.structure  observation.type  value.reported
 1  CC(=O)N1CCC(n2c(=O)n(Cc3ccc(-c4nnc(C(F)F)o4)cn3)c3ccc(F)cc32)CC1             pIC50            6.97
 2  CS(=O)(=O)N1CCC(n2c(=O)n(Cc3ccc(-c4nnc(C(F)F)o4)cn3)c3cc(C(F)(F)F)ccc32)CC1             pIC50            7.30
 3  CC(=O)N1CCC(n2c(=O)n(Cc3ccc(-c4nnc(C(F)F)o4)cc3)c3cc(F)c(F)cc32)CC1             pIC50            7.30
 4  O=c1n(Cc2ccc(-c3nnc(C(F)F)o3)cc2F)c2ccccc2n1CC1CCN(C2COC2)CC1             pIC50            6.78
 5  COCCC(=O)N1CCC(n2c(=O)n(Cc3ccc(-c4nnc(C(F)F)o4)cn3)c3cc(F)ccc32)CC1             pIC50            7.39
 6  Cc1noc(C)c1-c1cc2c(cc1F)n(Cc1ccc(-c3nnc(C(F)F)o3)cn1)c(=O)n2C             pIC50            7.70
 7  O=c1oc2cc(-c3cnn(C4CCNCC4)c3)c(F)cc2n1Cc1ccc(-c2nnc(C(F)F)o2)cn1             pIC50            7.48
 8  CC(C)N1CCC(n2c(=O)n(Cc3ccc(-c4nnc(C(F)F)o4)cc3F)c3ccccc32)CC1             pIC50            6.71
 9  CN1CCC(n2c(=O)n(Cc3ccc(-c4nnc(C(F)F)o4)cc3)c3cc(-c4cccnc4)ccc32)CC1             pIC50            6.55
10  CC(C)N1CCC(n2cc(-c3cc4oc(=O)n(Cc5ccc(-c6nnc(C(F)F)o6)cn5)c4cc3F)cn2)CC1             pIC50            7.64
11  O=c1oc2cc(-c3ccc(N4CCN(C5COC5)CC4)nc3)c(F)cc2n1Cc1ccc(-c2nnc(C(F)F)o2)cn1             pIC50            7.48
12  O=c1n(Cc2ccc(-c3nnc(C(F)F)o3)cn2)c2cc(C(F)(F)F)ccc2n1C1CCN(C2COC2)CC1             pIC50            7.51
13  O=c1oc2cc(N3CCN(C4COC4)CC3)c(F)cc2n1Cc1ccc(-c2nnc(C(F)F)o2)cn1             pIC50            7.25
14  Cn1c(=O)n(Cc2ccc(-c3nnc(C(F)F)o3)cn2)c2cc(F)c(-c3cnc(N4CCN(C5COC5)CC4)nc3)cc21             pIC50            7.72
15  O=c1n(CCN2CCOCC2)c2cc(-c3cccnc3)c(F)cc2n1Cc1ccc(-c2nnc(C(F)F)o2)cn1             pIC50            7.38
